tested on: PANC-1; test: In vitro cytotoxicity, CCK-8 assay, PANC-1; type: cell-based; conditions: Homo sapiens, PANC-1, 48 h, read-out: IC50 PANC-1, hypoxia (5% CO2, 95% N2), 48 h, CCK-8
pIC50: −log10 of the molar value.

{"compound": "C=C1/C=C/C(=O)N(C)CC(=O)N[C@@H]([C@H](O)C(N)=O)C(=O)O[C@@H]([C@H](C)CCCCCCCCCCCC(C)CC)[C@H](C)C(=O)N1 (stereo partly shown)", "pIC50": 6.31}

====

system: PANC-1; assay: In vitro cytotoxicity, CCK-8 assay, PANC-1; format: cell-based; settings: Homo sapiens, PANC-1, 48 h, read-out: IC50 PANC-1, normoxia, 48 h drug exposure, CCK-8
quantityKind: IC50 (µM)

{"compound": "C=C1/C=C/C(=O)N(C)CC(=O)N[C@@H]([C@H](O)C(N)=O)C(=O)O[C@@H]([C@H](C)CCCCCCCCCCCC(C)CC)[C@H](C)C(=O)N1 (stereo partly shown)", "unitText": "µM", "readoutNumber": 0.815}
